- ASSAY NAME: total protein half-life in vivo (active degradation + dilution); higher = more stable protein
- CONDITION CONTEXT: wild type E. coli NCM3722; growth: C-lim chemostat; doubling time 3 h

| QUERY SEQUENCE | total protein half-life in vivo [h] |
| --- | --- |
| MSEMIYGIHAVQALLERAPERFQEVFILKGREDKRLLPLIHALESQGVVIQLANRQYLDEKSDGAVHQGIIARVKPGRQYQENDLPDLIASLDQPFLLILDGVTDPHNLGACLRSADAAGVHAVIVPKDRSAQLNATAKKVACGAAESVPLIRVTNLARTMRMLQEENIWIVGTAGEADHTLYQSKMTGRLALVMGAEGEGMRRLTREHCDELISIPMAGSVSSLNVSVATGICLFEAVRQRS | 2.73 |
| MKMNKSLIVLCLSAGLLASAPGISLADVNYVPQNTSDAPAIPSAALQQLTWTPVDQSKTQTTQLATGGQQLNVPGISGPVAAYSVPANIGELTLTLTSEVNKQTSVFAPNVLILDQNMTPSAFFPSSYFTYQEPGVMSADRLEGVMRLTPALGQQKLYVLVFTTEKDLQQTTQLLDPAKAYAKGVGNSIPDIPDPVARHTTDGLLKLKVKTNSSSSVLVGPLFGSSAPAPVTVGNTAAPAVAAPAPAPVKKSEPMLNDTESYFNTAIKNAVAKGDVDKALKLLDEAERLGSTSARSTFISSVKGKG | 2.84 |
| MHCPFCFAVDTKVIDSRLVGEGSSVRRRRQCLVCNERFTTFEVAELVMPRVVKSNDVREPFNEEKLRSGMLRALEKRPVSSDDVEMAINHIKSQLRATGEREVPSKMIGNLVMEQLKKLDKVAYIRFASVYRSFEDIKEFGEEIARLED [P0A8D0] | 2.98 |
| MLIRVEIPIDAPGIDALLRRSFESDAEAKLVHDLREDGFLTLGLVATDDEGQVIGYVAFSPVDVQGEDLQWVGMAPLAVDEKYRGQGLARQLVYEGLDSLNEFGYAAVVTLGDPALYSRFGFELAAHHDLRCRWPGTESAFQVHRLADDALNGVTGLVEYHEHFNRF | 3.02 |
| MVDKSQETTHFGFQTVAKEQKADMVAHVFHSVASKYDVMNDLMSFGIHRLWKRFTIDCSGVRRGQTVLDLAGGTGDLTAKFSRLVGETGKVVLADINESMLKMGREKLRNIGVIGNVEYVQANAEALPFPDNTFDCITISFGLRNVTDKDKALRSMYRVLKPGGRLLVLEFSKPIIEPLSKAYDAYSFHVLPRIGSLVANDADSYRYLAESIRMHPDQDTLKAMMQDAGFESVDYYNLTAGVVALHRGYKF [P0A887] | 2.41 |
| MKPGCTLFFLLCSALTVTTEAHAQTPDTATTAPYLLAGAPTFDLSISQFREDFNSQNPSLPLNEFRAIDSSPDKANLTRAASKINENLYASTALERGTLKIKSIQMTWLPIQGPEQKAAKAKAQEYMAAVIRTLTPLMTKTQSQKKLQSLLTAGKNKRYYTETEGALRYVVADNGEKGLTFAVEPIKLALSESLEGLNK | 2.86 |
| MLNKLSLLLKDAGISLTDHQKNQLIAYVNMLHKWNKAYNLTSVRDPNEMLVRHILDSIVVAPYLQGERFIDVGTGPGLPGIPLSIVRPEAHFTLLDSLGKRVRFLRQVQHELKLENIEPVQSRVEEFPSEPPFDGVISRAFASLNDMVSWCHHLPGEQGRFYALKGQMPEDEIALLPEEYQVESVVKLQVPALDGERHLVVIKANKI [P0A6U5] | 3.51 |
| MKILVDENMPYARDLFSRLGEVTAVPGRPIPVAQLADADALMVRSVTKVNESLLAGKPIKFVGTATAGTDHVDEAWLKQAGIGFSAAPGCNAIAVVEYVFSSLLMLAERDGFSLYDRTVGIVGVGNVGRRLQARLEALGIKTLLCDPPRADRGDEGDFRSLDELVQRADILTFHTPLFKDGPYKTLHLADEKLIRSLKPGAILINACRGAVVDNTALLTCLNEGQKLSVVLDVWEGEPELNVELLKKVDIGTSHIAGYTLEGKARGTTQVFEAYSKFIGHEQHVALDTLLPAPEFGRITLHGPLDQPTLKRLVHLVYDVRRDDAPLRKVAGIPGEFDKLRKNYLERREWSSLYVICDDASAASLLCKLGFNAVHHPAR | 3 |
| MVTFHTNHGDIVIKTFDDKAPETVKNFLDYCREGFYNNTIFHRVINGFMIQGGGFEPGMKQKATKEPIKNEANNGLKNTRGTLAMARTQAPHSATAQFFINVVDNDFLNFSGESLQGWGYCVFAEVVDGMDVVDKIKGVATGRSGMHQDVPKEDVIIESVTVSE | 3.3 |
| MPPRRYNPDTRRDELLERINLDIPGAVAQALREDLGGTVDANNDITAKLLPENSRSHATVITRENGVFCGKRWVEEVFIQLAGDDVTIIWHVDDGDVINANQSLFELEGPSRVLLTGERTALNFVQTLSGVASKVRHYVELLEGTNTQLLDTRKTLPGLRSALKYAVLCGGGANHRLGLSDAFLIKENHIIASGSVRQAVEKASWLHPDAPVEVEVENLEELDEALKAGADIIMLDNFETEQMREAVKRTNGKALLEVSGNVTDKTLREFAETGVDFISVGALTKHVQALDLSMRFR | 2.86 |
| MAKNYYDITLALAGICQSARLVQQLAHQGHCDADALHVSLNSIIDMNPSSTLAVFGGSEANLRVGLETLLGVLNASSRQGLNAELTRYTLSLMVLERKLSSAKGALDTLGNRINGLQRQLEHFDLQSETLMSAMAAIYVDVISPLGPRIQVTGSPAVLQSPQVQAKVRATLLAGIRAAVLWHQVGGGRLQLMFSRNRLTTQAKQILAHLTPEL | 3.36 |
| MMNPLIIKLGGVLLDSEEALERLFSALVNYRESHQRPLVIVHGGGCVVDELMKGLNLPVKKKNGLRVTPADQIDIITGALAGTANKTLLAWAKKHQIAAVGLFLGDGDSVKVTQLDEELGHVGLAQPGSPKLINSLLENGYLPVVSSIGVTDEGQLMNVNADQAATALAATLGADLILLSDVSGILDGKGQRIAEMTAAKAEQLIEQGIITDGMIVKVNAALDAARTLGRPVDIASWRHAEQLPALFNGMPMGTRILA [P0A6C8] | 2.84 |
